test-system: BACE1 enzyme (Homo sapiens)
Sequence (P56817 46-501): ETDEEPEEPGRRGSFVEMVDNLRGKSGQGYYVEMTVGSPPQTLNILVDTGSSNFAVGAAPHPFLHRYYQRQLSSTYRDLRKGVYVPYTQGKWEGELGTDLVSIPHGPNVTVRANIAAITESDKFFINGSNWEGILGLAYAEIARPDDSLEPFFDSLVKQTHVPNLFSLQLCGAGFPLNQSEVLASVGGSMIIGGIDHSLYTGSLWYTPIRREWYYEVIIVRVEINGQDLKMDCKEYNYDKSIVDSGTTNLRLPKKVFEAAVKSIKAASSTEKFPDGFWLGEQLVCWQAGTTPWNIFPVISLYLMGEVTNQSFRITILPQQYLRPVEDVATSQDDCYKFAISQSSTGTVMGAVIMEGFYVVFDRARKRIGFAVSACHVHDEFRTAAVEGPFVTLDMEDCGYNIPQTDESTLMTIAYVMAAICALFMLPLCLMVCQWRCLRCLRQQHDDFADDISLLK
assay-method-text: BACE1 enzyme inhibition, Ki from kinetic data under tight-binding conditions
Assay type: biochemical
reported-conditions: read-out: Ki (nM) BACE1; Table 2
measured-property: Ki (nM)

• CCC[C@H](O)[C@H](NC[C@@H](O)[C@H](Cc1ccccc1)NC(=O)c1cccc(C(=O)N(C)[C@H](C)c2ccccc2)c1)c1ccccc1 [inhibitor 3g] = 42500
• COc1cccc([C@@H](NC[C@@H](O)[C@H](Cc2ccccc2)NC(=O)c2cc(C(=O)N[C@H](C)c3ccccc3)cc(N(C)S(C)(=O)=O)c2)[C@H](C)O)c1 [inhibitor 3a] = 205
• COc1cccc([C@@H](NC[C@@H](O)[C@H](Cc2ccccc2)NC(=O)c2cccc(C(=O)N(C)[C@H](C)c3ccccc3)c2)[C@H](C)O)c1 [inhibitor 3c] = 51300
• COc1cccc([C@@H](NC[C@@H](O)[C@H](Cc2ccccc2)NC(=O)c2cc(C(=O)N(C)[C@H](C)c3ccccc3)cc(N(C)S(C)(=O)=O)c2)[C@H](C)O)c1 [inhibitor 3b] = 4850
• CCC[C@H](O)[C@H](NC[C@@H](O)[C@H](Cc1ccccc1)NC(=O)c1cc(C)cc(C(=O)N(C)[C@H](C)c2ccccc2)c1)c1cccc(OC)c1 [inhibitor 3f] = 8800

Cited source: paper PMC6637425
